The entries below are paired with their reported EC50.
target: KCNQ 2/3 channels (Homo sapiens, UniProt O43525+O43526); assay: KCNQ 2/3 channel activation, thallium flux FLIPR assay (BTC-AM dye); conditions: HEK293 cells stably expressing human KCNQ2 and KCNQ3 subunits; thallium-induced fluorescence, 4 min compound incubation
I only need the number, in nM, no unit after it.

Below, 2 compounds whose answers are already recorded.
>>> measured_value("O=C(Cc1ccc(Cl)cc1)Nn1nc(S(=O)(=O)c2ccncc2)c2ccccc2c1=O")
621
>>> measured_value("CN(Cc1ccccc1)c1nn(NC(=O)Cc2cc(F)cc(F)c2)c(=O)c2ccccc12")
132

Observed EC50 on KCNQ 2/3 channels (Homo sapiens, UniProt O43525+O43526) for "O=C(Cc1ccc(Cl)c(Cl)c1)Nn1nc(N2CCOCC2)c2ccccc2c1=O" , please.
628

Identify the measured EC50 of "O=C(Cc1ccc(Cl)cc1)Nn1nc(S(=O)(=O)Cc2ccccc2)c2ccccc2c1=O" for KCNQ 2/3 channels (Homo sapiens, UniProt O43525+O43526).
1840
